The values you see were collected from patent US7118895B2.

Tested on: Diglycosidase derived from A. fumigatus
Assay: Reactivity toward various isoflavone glycosides (HPLC)
Type: biochemical, Aspergillus fumigatus
Set-up: unit not given here
Conditions: Reaction time 6 h; 55 °C, pH 4.0

CHEMICAL STRING | glucoside
COc1cc2c(=O)c(-c3ccc(O)cc3)coc2cc1O[C@@H]1O[C@H](COC(C)=O)[C@@H](O)[C@H](O)[C@H]1O | 77.3
O=c1c(-c2ccc(O)cc2)coc2cc(O[C@@H]3O[C@H](CO)[C@@H](O)[C@H](O)[C@H]3O)cc(O)c12 | 100
COc1cc2c(=O)c(-c3ccc(O)cc3)coc2cc1O[C@@H]1O[C@H](COC(=O)CC(=O)O)[C@@H](O)[C@H](O)[C@H]1O | 98.6
O=C(O)CC(=O)OC[C@H]1O[C@@H](Oc2cc(O)c3c(=O)c(-c4ccc(O)cc4)coc3c2)[C@H](O)[C@@H](O)[C@@H]1O | 91.8
CC(=O)OC[C@H]1O[C@@H](Oc2cc(O)c3c(=O)c(-c4ccc(O)cc4)coc3c2)[C@H](O)[C@@H](O)[C@@H]1O | 64.8
COc1cc2c(=O)c(-c3ccc(O)cc3)coc2cc1O[C@@H]1O[C@H](CO)[C@@H](O)[C@H](O)[C@H]1O | 100

* * *

Test system: Crude diglycosidase
Assay: Examination of substrate concentration in the conversion into isoflavone aglycons by diglycosidase using soybean materials;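 further: percent of the isoflavone family total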
Assay type: biochemical, Penicillium multicolor IAM7153
Conditions: defatted soybean, substrate concentration 10%, heat treatment of enzyme no, reaction time 1 h
OBSERVATION TYPE: Decomposition efficiency: ratio of each glycoside/aglycon within its isoflavone family (%)

COMPOUND | U | VALUE OBSERVED
COc1cc2c(=O)c(-c3ccc(O)cc3)coc2cc1O [glycitein] | % | 45.3
COc1cc2c(=O)c(-c3ccc(O)cc3)coc2cc1O[C@@H]1O[C@H](COC(=O)CC(=O)O)[C@@H](O)[C@H](O)[C@H]1O [malonylglycitin, 6″-O-malonylglycitin] | % | 54.7

* * *

glucoside reference
Test system: β-Glucosidase derived from A. niger
Assay: Reactivity toward various isoflavone glycosides (HPLC)
Type: biochemical, Aspergillus niger
Set-up: unit not given here
Conditions: Reaction time 3 h; 55 °C, pH 4.0

MOLECULE | SYSTEM UNDER TEST | glucoside
O=c1c(-c2ccc(O)cc2)coc2cc(O[C@@H]3O[C@H](CO)[C@@H](O)[C@H](O)[C@H]3O)ccc12 [daidzin] | β-Glucosidase derived from A. niger | 0
COc1cc2c(=O)c(-c3ccc(O)cc3)coc2cc1O[C@@H]1O[C@H](COC(=O)CC(=O)O)[C@@H](O)[C@H](O)[C@H]1O [malonylglycitin, 6″-O-malonylglycitin] | β-Glucosidase derived from A. niger | 95.6
CC(=O)OC[C@H]1O[C@@H](Oc2cc(O)c3c(=O)c(-c4ccc(O)cc4)coc3c2)[C@H](O)[C@@H](O)[C@@H]1O [acetylgenistin, 6″-O-acetylgenistin] | β-Glucosidase derived from A. niger | 96.7
COc1cc2c(=O)c(-c3ccc(O)cc3)coc2cc1O[C@@H]1O[C@H](COC(C)=O)[C@@H](O)[C@H](O)[C@H]1O [acetylglycitin, 6″-O-acetylglycitin] | β-Glucosidase derived from A. niger | 99
CC(=O)OC[C@H]1O[C@@H](Oc2ccc3c(=O)c(-c4ccc(O)cc4)coc3c2)[C@H](O)[C@@H](O)[C@@H]1O [acetyldaidzin, 6″-O-acetyldaidzin] | β-Glucosidase derived from A. niger | 93.6
O=C(O)CC(=O)OC[C@H]1O[C@@H](Oc2ccc3c(=O)c(-c4ccc(O)cc4)coc3c2)[C@H](O)[C@@H](O)[C@@H]1O [malonyldaidzin, 6″-O-malonyldaidzin] | β-Glucosidase derived from A. niger | 90.7
O=c1c(-c2ccc(O)cc2)coc2cc(O[C@@H]3O[C@H](CO)[C@@H](O)[C@H](O)[C@H]3O)cc(O)c12 [genistin] | β-Glucosidase derived from A. niger | 0
COc1cc2c(=O)c(-c3ccc(O)cc3)coc2cc1O[C@@H]1O[C@H](CO)[C@@H](O)[C@H](O)[C@H]1O [glycitin] | β-Glucosidase derived from A. niger | 11.7
O=C(O)CC(=O)OC[C@H]1O[C@@H](Oc2cc(O)c3c(=O)c(-c4ccc(O)cc4)coc3c2)[C@H](O)[C@@H](O)[C@@H]1O [malonylgenistin, 6″-O-malonylgenistin] | β-Glucosidase derived from A. niger | 93

* * *

System: Crude diglycosidase
Assay: Examination of substrate concentration in the conversion into isoflavone aglycons by diglycosidase using soybean materials;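 further: percent of the isoflavone family total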
Assay type: biochemical, Penicillium multicolor IAM7153
Conditions: soymilk, substrate concentration 30%, heat treatment of enzyme no, reaction time 3 h
OBSERVATION TYPE: Decomposition efficiency: ratio of each glycoside/aglycon within its isoflavone family

CHEMICAL STRING | VALUE OBSERVED
O=C(O)CC(=O)OC[C@H]1O[C@@H](Oc2ccc3c(=O)c(-c4ccc(O)cc4)coc3c2)[C@H](O)[C@@H](O)[C@@H]1O | 29.7%
O=c1c(-c2ccc(O)cc2)coc2cc(O[C@@H]3O[C@H](CO)[C@@H](O)[C@H](O)[C@H]3O)ccc12 | not detected
O=c1c(-c2ccc(O)cc2)coc2cc(O[C@@H]3O[C@H](CO)[C@@H](O)[C@H](O)[C@H]3O)cc(O)c12 | not detected
COc1cc2c(=O)c(-c3ccc(O)cc3)coc2cc1O[C@@H]1O[C@H](CO)[C@@H](O)[C@H](O)[C@H]1O | not detected

* * *

Tested on: Crude diglycosidase
Assay: Examination of temperature in the conversion into isoflavone aglycons by diglycosidase using soybean materials
Assay type: biochemical, Penicillium multicolor IAM7153
Parameters: concentration or dose not given beside the values
Settings: 80 °C; heat treatment of enzyme: no; 6 h
OBSERVATION TYPE: Decomposition efficiency of daidzin family in roasted soy flour (%)

COMPOUND | U | VALUE OBSERVED
CC(=O)OC[C@H]1O[C@@H](Oc2ccc3c(=O)c(-c4ccc(O)cc4)coc3c2)[C@H](O)[C@@H](O)[C@@H]1O [acetyldaidzin, 6″-O-acetyldaidzin] | % | 46.7
O=c1c(-c2ccc(O)cc2)coc2cc(O)ccc12 [daidzein] | % | 40.8
O=c1c(-c2ccc(O)cc2)coc2cc(O[C@@H]3O[C@H](CO)[C@@H](O)[C@H](O)[C@H]3O)ccc12 [daidzin] | % | 12.5

* * *

Test system: Diglycosidase derived from A. fumigatus
Assay: Reactivity toward various isoflavone glycosides (HPLC)
Type: biochemical, Aspergillus fumigatus
Parameters: unit not given here
Details: Reaction time 3 h; 55 °C, pH 4.0

CHEMICAL STRING | aglycon
O=c1c(-c2ccc(O)cc2)coc2cc(O[C@@H]3O[C@H](CO)[C@@H](O)[C@H](O)[C@H]3O)ccc12 | 14.7
COc1cc2c(=O)c(-c3ccc(O)cc3)coc2cc1O[C@@H]1O[C@H](COC(=O)CC(=O)O)[C@@H](O)[C@H](O)[C@H]1O | 0.8
COc1cc2c(=O)c(-c3ccc(O)cc3)coc2cc1O[C@@H]1O[C@H](COC(C)=O)[C@@H](O)[C@H](O)[C@H]1O | 13.5
COc1cc2c(=O)c(-c3ccc(O)cc3)coc2cc1O[C@@H]1O[C@H](CO)[C@@H](O)[C@H](O)[C@H]1O | 0
O=C(O)CC(=O)OC[C@H]1O[C@@H](Oc2ccc3c(=O)c(-c4ccc(O)cc4)coc3c2)[C@H](O)[C@@H](O)[C@@H]1O | 20.5
CC(=O)OC[C@H]1O[C@@H](Oc2cc(O)c3c(=O)c(-c4ccc(O)cc4)coc3c2)[C@H](O)[C@@H](O)[C@@H]1O | 22.9

* * *

Test system: β-Glucosidase derived from almond
Experiment: Reactivity toward various isoflavone glycosides (HPLC)
Type: biochemical
Parameters: unit not given here
Settings: Reaction time 1 h; 55 °C, pH 4.0

CHEMICAL STRING | aglycon
O=C(O)CC(=O)OC[C@H]1O[C@@H](Oc2ccc3c(=O)c(-c4ccc(O)cc4)coc3c2)[C@H](O)[C@@H](O)[C@@H]1O | 0
CC(=O)OC[C@H]1O[C@@H](Oc2ccc3c(=O)c(-c4ccc(O)cc4)coc3c2)[C@H](O)[C@@H](O)[C@@H]1O | 0.5
COc1cc2c(=O)c(-c3ccc(O)cc3)coc2cc1O[C@@H]1O[C@H](CO)[C@@H](O)[C@H](O)[C@H]1O | 1.6
CC(=O)OC[C@H]1O[C@@H](Oc2cc(O)c3c(=O)c(-c4ccc(O)cc4)coc3c2)[C@H](O)[C@@H](O)[C@@H]1O | 0
O=C(O)CC(=O)OC[C@H]1O[C@@H](Oc2cc(O)c3c(=O)c(-c4ccc(O)cc4)coc3c2)[C@H](O)[C@@H](O)[C@@H]1O | 0

* * *

Reported Decomposition efficiency of glycitin family in defatted soybean by item:
Tested on: Crude diglycosidase
Assay: Examination of temperature in the conversion into isoflavone aglycons by diglycosidase using soybean materials
Assay type: biochemical, Penicillium multicolor IAM7153
Set-up: concentration or dose not given beside the values
Settings: 65° C., heat treatment of enzyme no, reaction time 0 h
OBSERVATION TYPE: Decomposition efficiency of glycitin family in defatted soybean (%)

CHEMICAL STRING | VALUE OBSERVED
COc1cc2c(=O)c(-c3ccc(O)cc3)coc2cc1O[C@@H]1O[C@H](COC(=O)CC(=O)O)[C@@H](O)[C@H](O)[C@H]1O | 65.2
COc1cc2c(=O)c(-c3ccc(O)cc3)coc2cc1O | 34.8
